System: MDAMB231
Assay: In vitro sphere-forming assay (cancer stem cells), Mammosphere media
Conditions: drug 25 uM; Mammosphere media; 2000 cells/well; n = 6 ± S.D
READOUT_NAME: 3D sphere count of MDAMB231

# COMPOUND, READOUT_NAME, DATA_VALUE
rows = [
    ("COc1ccc(OC2=CC(=O)c3c(OCCN4CCOCC4)cccc3C2=O)cc1 [Formula 81]", "3D sphere count of MDAMB231", "21(±3)"),
]

Result for "O=C1C(Oc2ccc(F)cc2)=CC(=O)c2c(OCCN3CCOCC3)cccc21" , tested on MDAMB231, 3D sphere count of MDAMB231: 14(±3)

Recorded values, source patent US20240018132A1.
